Molecular target: T1, human G-CSF receptor (human, UniProt Q99062 25-836)
T1 sequence (looked up): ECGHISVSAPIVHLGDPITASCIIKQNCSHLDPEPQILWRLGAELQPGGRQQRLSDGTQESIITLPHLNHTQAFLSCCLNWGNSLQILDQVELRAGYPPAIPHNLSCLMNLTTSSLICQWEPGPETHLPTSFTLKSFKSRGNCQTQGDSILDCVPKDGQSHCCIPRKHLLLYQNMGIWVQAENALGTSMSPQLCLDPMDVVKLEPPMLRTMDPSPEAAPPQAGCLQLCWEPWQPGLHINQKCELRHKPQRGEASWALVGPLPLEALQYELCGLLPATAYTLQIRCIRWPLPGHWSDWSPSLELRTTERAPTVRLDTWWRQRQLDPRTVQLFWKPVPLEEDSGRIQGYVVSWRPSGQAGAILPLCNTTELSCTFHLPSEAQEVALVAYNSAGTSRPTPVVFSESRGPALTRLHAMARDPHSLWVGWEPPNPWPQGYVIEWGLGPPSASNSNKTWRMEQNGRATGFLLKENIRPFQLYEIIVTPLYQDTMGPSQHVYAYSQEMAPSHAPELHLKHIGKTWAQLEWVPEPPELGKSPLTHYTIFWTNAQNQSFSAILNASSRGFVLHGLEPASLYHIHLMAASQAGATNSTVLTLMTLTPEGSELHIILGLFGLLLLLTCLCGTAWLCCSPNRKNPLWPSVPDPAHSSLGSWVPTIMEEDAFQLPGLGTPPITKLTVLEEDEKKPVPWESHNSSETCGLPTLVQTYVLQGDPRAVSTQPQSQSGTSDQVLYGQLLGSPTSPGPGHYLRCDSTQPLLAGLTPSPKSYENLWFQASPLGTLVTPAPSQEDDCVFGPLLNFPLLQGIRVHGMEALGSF
Experiment: cell-based or functional assay
Known EC50 (% of hG-CSF) non-conjugated of a selection of binders
Assay Metric: EC50 (% of hG-CSF) non-conjugated

{"Binder": "G-CSF variant K16/34/40R T105K Q120K, non-conjugated (ligand) TPLGPASSLPQSFLLRCLEQVRKIQGDGAALQERLCATYRLCHPEELVLLGHSLGIPWAPLSSCPSQALQLAGCLSQLHSGLFLYQGLLQALEGISPELGPTLDKLQLDVADFATTIWQKMEELGMAPALQPTQGAMPAFASAFQRRAGGVLVASHLQSFLEVSYRVLRHLAQP", "Recorded Result": "20 % of hG-CSF"}
{"Binder": "G-CSF variant K16/34/40R T105K Q120K T133K, non-conjugated (ligand) TPLGPASSLPQSFLLRCLEQVRKIQGDGAALQERLCATYRLCHPEELVLLGHSLGIPWAPLSSCPSQALQLAGCLSQLHSGLFLYQGLLQALEGISPELGPTLDKLQLDVADFATTIWQKMEELGMAPALQPKQGAMPAFASAFQRRAGGVLVASHLQSFLEVSYRVLRHLAQP", "Recorded Result": "10 % of hG-CSF"}
